assay_system: T1, EGFR-L858R (Homo sapiens, UniProt P00533, L858R)
T1 construct: with the advantage of testing full-length integral membrane proteins; (GGGGS)2 linker-Cub (human ubiquitin aa 35-76)-GAL4(1-147)-mNFkB(364-550) (C); expressed in transfected cells
assay_method_text: MaMTH EGFR-interactor screen, lentiviral preys against EGFR-L858R bait (interaction score)
Format: cell-based
assay_context: MaMTH interaction score of prey with EGFR-L858R bait
value_type: EGFR-L858R mean
I only need the number, thanks.

**Query** Recorded EGFR-L858R mean of SH3GL2 (protein, UniProt Q99962 1-352, looked up) Endophilin-A1: MSVAGLKKQFHKATQKVSEKVGGAEGTKLDDDFKEMERKVDVTSRAVMEIMTKTIEYLQPNPASRAKLSMINTMSKIRGQEKGPGYPQAEALLAEAMLKFGRELGDDCNFGPALGEVGEAMRELSEVKDSLDIEVKQNFIDPLQNLHDKDLREIQHHLKKLEGRRLDFDYKKKRQGKIPDEELRQALEKFDESKEIAESSMFNLLEMDIEQVSQLSALVQAQLEYHKQAVQILQQVTVRLEERIRQASSQPRREYQPKPRMSLEFPTGDSTQPNGGLSHTGTPKPSGVQMDQPCCRALYDFEPENEGELGFKEGDIITLTNQIDENWYEGMLHGHSGFFPINYVEILVALPH , please.
**Result** 7.85
